# procedure-summary: Drug concentrations on day-8 in CS-model mice after 7-day intranasal treatment
# Format: in vivo
# experimental-setup: C57BL/6, mouse, plasma, other: intranasal; CS exposed mice, day-8, intranasal 100 µg/animal; read-out: Total concentration Plasma
# Procedure: Additionally, after 7-day intranasal treatment with PCCR-1 in the CS-model in mice as described above, blood, BAL fluid and lung tissues were collected on day-8 approximately 1 h after the last treatment dose for estimating the drug concentrations for PK-PD correlation.
reported-endpoint: concentration at 1 h (nM)

- CCn1c(C(C)(C)Oc2ccc(F)cc2F)nc2cc(NC(=O)Cc3ccc(S(=O)(=O)CC)cc3)ccc21 [PCCR-1]: 84.7
